assay: Kinetic solubility in aqueous buffer pH 7.4 by total chemiluminescent nitrogen determination (Analiza); settings: aqueous buffer, pH 7.4, aqueous buffer, kinetic from dmso stock
Threshold rule: solubility kinetic greater than or equal to 40 µM is YES; below that, NO.

Enquiry: # check: solubility kinetic of O=c1oc2ccccc2cc1-c1cn2cc(Cc3ccc(F)cc3)sc2n1 [iMDK] is greater than or equal to 40 µM
Return: NO

Enquiry: And the next one, OC(c1cc(C23CC4CC(CC(C4)C2)C3)nc2c(Cl)cc(Cl)cc12)C1CCCCN1 (centres unmarked) [NSC305787] ?
Return: NO

Enquiry: Field entry: C[C@H](NC(=O)c1sccc1OCc1ccc(Cl)cc1)c1ccccc1 [AS1949490]
Return: NO

Enquiry: Do the same for CN1C[C@H](Nc2cnn(C)c(=O)c2Br)C[C@H](c2ccccc2)C1 [GSK4027] please
Return: YES

Enquiry: And what about the compound CCCc1cc(-c2nc(-c3ccc(C)cc3)cs2)ccn1 [Fatostatin] ?
Return: NO

Enquiry: Field entry: Cc1cc(NC(=O)Nc2ccc(F)c(F)c2)n(-c2ccccc2)n1 [ML 297]
Return: YES

Enquiry: Same thing, different compound: CN(C)C/C=C/C(=O)Nc1cc2c(Nc3ccc(F)c(Cl)c3)ncnc2cc1O[C@H]1CCOC1 [Afatinib]
Return: YES

Enquiry: Proceed to COc1ccc(CCN2CCN(CCCc3ccccc3)CC2)cc1OC.Cl.Cl [Cutamesine (SA 4503)]
Return: YES

Enquiry: Moving on to CC(Nc1nc(N2CCCC2)nc2ccccc12)c1ccccc1 (centres unmarked) [Importazole]
Return: YES

Enquiry: // query: CN(CCOc1ccc(CC2SC(=O)NC2=O)cc1)c1ccccn1 (centres unmarked) [Rosiglitazone]
Return: YES

Enquiry: Try Cn1nccc1Nc1nccc(-c2ccn([C@H](CO)c3ccc(Cl)c(F)c3)c(=O)c2)n1 [Ravoxertinib (GDC0994)] next.
Return: NO

Enquiry: Again, but for CN(C)CCCn1c(N)c(-c2nc3ccccc3[nH]2)c2nc3ccccc3nc21 [INI-43]
Return: NO

Enquiry: Query Oc1c(F)cc(-c2cnccc2-c2ccc(N3CCOCC3)cc2)cc1F [LJI308] next
Return: NO

Enquiry: Repeat for the following compound: CC(=O)c1nc([C@@H](O)[C@H](O)[C@H](O)CO)c[nH]1 [THI]
Return: YES

* * *

What 2. Nuclear Area (% Control) was measured for each of the following?
tested on: BV2 (mouse microglia) cell line; assay: pHrodo-myelin phagocytosis/cell viability high content imaging assay: viability (cell count, nuclear area, nuclear intensity); conditions: BV2 cells, 10 uM compound, 48 hours treatment
Lab book: enter the figure in % Control, no units written.

Enquiry: For the record CCC(=O)O[C@]1(C(=O)SCF)[C@H](C)C[C@H]2[C@@H]3C[C@H](F)C4=CC(=O)C=C[C@]4(C)[C@@]3(F)[C@@H](O)C[C@@]21C [UNC10121416A] , what value of 2. Nuclear Area (% Control) is listed for BV2 (mouse microglia) cell line?
Return: 98.6

Enquiry: Query C=C(c1ccc(C(=O)O)cc1)c1cc2c(cc1C)C(C)(C)CCC2(C)C [UNC10302949A] next
Return: 109.3

Enquiry: Repeat with O=c1ccc2c(OCCCCOc3ccccc3)c3ccoc3cc2o1 [UNC10302901A]
Return: 105.4
